test system: PC-3; experiment: NCI tumour cell line growth inhibition, 48 h
Calls of active or inactive are those of the source. No stated cut-off is given here; in the data, active = GI50 up to about 1.1 µM and inactive = higher.
What GI50 was measured for each of the following?

{"molecule": "O=C(NNS(=O)(=O)c1ccccc1)c1cccnc1", "target": "PC-3", "GI50": "> 100 µM (inactive)"}

Batch: GI50 for all items listed.
1. CC1(c2nc3ccccc3[nH]2)CCC(C#N)C(C)(C)O1 (stereo not drawn)
2. COc1c2c(nc3ccccc13)-c1cc3c(c(=O)n1C2)COC(=O)C3(O)CC(=O)N1CCOCC1 (stereo not drawn)
3. N#Cc1nc(C2CCC(=O)O2)oc1N (stereo not drawn)
4. O=S(=O)(O)c1ccc(O)c(/N=N/c2c(O)ccc3ccccc23)c1
5. COC(=O)[C@]12CC[C@H]3CC[C@H]([C@H]31)[C@H](c1ccccc1)N2
6. O=c1cc(N2CCOCC2)[nH]c(=O)n1-c1cccc(Cl)c1
7. CCCOC1OC(CS(=O)(=O)O)C(O)C(O)C1O (stereo not drawn)

## Result
1. > 100 µM (inactive)
2. 21.1 µM (inactive)
3. > 100 µM (inactive)
4. > 100 µM (inactive)
5. 16.3 µM (inactive)
6. > 100 µM (inactive)
7. > 100 µM (inactive)
